Origin of values: patent US20040224958A1

- measured.on: Cdk5/p25 (Homo sapiens, UniProt Q00535)
- assay.procedure: Cyclin-Dependent Kinase 5 High Throughput Screening (cdk5-HTS) Assay
- Assay type: biochemical
- condition.parameters: high throughput screen
test.readout: IC50 (nM)

Solved entries:
# compound, scale.unit, IC50
records = [
    ("CC(=O)Nc1cc(Nc2ncc3ccc(=O)n(CC4CC4)c3n2)ccc1C#N [Example 574]", "nM", 140),
    ("CCCCn1c(=O)ccc2cnc(Nc3ccc(F)cc3F)nc21 [Example 368]", "nM", 723),
    ("CCCCn1c(=O)ccc2cnc(Nc3cc(F)cc(F)c3)nc21 [Example 404]", "nM", 280),
]

1. CCCCn1c(=O)ccc2cnc(Nc3ccc(S(N)(=O)=O)cc3)nc21 [Example 393]
2. CCCn1c(=O)ccc2cnc(Nc3ccc(F)c(F)c3)nc21 [Example 343]
**Query** Smaller IC50 value, 1 vs 2 ? Pick one and reply with its label.
**Result** 1

P. CCC(CC)n1c(=O)ccc2cnc(Nc3cccc(I)c3)nc21 [Example 490]
Q. CCC(C)n1c(=O)ccc2cnc(Nc3ccc(OC)c(F)c3)nc21 (stereo not drawn) [Example 462]
R. CCCCn1c(=O)ccc2cnc(Nc3ccc(O)cc3F)nc21 [Example 382]
**Query** Order by IC50, ascending. Labels, ranked as asked.
**Result** Q, P, R

---

- measured.on: cdk2/cyclinE (Homo sapiens)
- assay.procedure: Cyclin-Dependent Kinase Assay cdk2/cyclinE
- condition.parameters: cdk2/E IC50
test.readout: IC50 (nM)

# molecule, scale.unit, readout.value
records = [
    ("CCCn1c(=O)ccc2cnc(Nc3ccc(C)c(C)c3)nc21 [Example 318]", "nM", 289),
]

a. CCn1c(=O)ccc2cnc(Nc3ccc(C#N)c(C#N)c3)nc21 [Example 298]
b. CCC(C)n1c(=O)ccc2cnc(Nc3ccc(Cl)c(C(F)(F)F)c3)nc21 (stereo not shown) [Example 468]
**Query** Smaller IC50 value, a vs b ? Pick one and reply with its label.
**Result** b
(b: 330 nM, a: 1400 nM)

---

- measured.on: cdk2/cyclinA (Homo sapiens)
- assay.procedure: Cyclin-Dependent Kinase Assay cdk2/cyclinA
- condition.parameters: cdk2/A IC50
test.readout: IC50 (µM)

P. CCCCn1c(=O)ccc2cnc(Nc3ccc4c(c3)CCCC4=O)nc21
Q. CCCn1c(=O)ccc2cnc(Nc3ccc(OC(F)(F)F)cc3)nc21
**Query** Smaller IC50 value, P vs Q ? Pick one and reply with its label.
**Result** P

1. O=c1ccc2cnc(Nc3ccc(O)cc3F)nc2n1C1CCCC1
2. CCCn1c(=O)ccc2cnc(Nc3cc(OC)cc(C(F)(F)F)c3)nc21
3. CCC(CC)n1c(=O)ccc2cnc(Nc3cccc(I)c3)nc21
**Query** Order by IC50, ascending. Labels, ranked as asked.
**Result** 1, 3, 2
(1: 0.32 µM, 3: 0.753 µM, 2: 1.8 µM)

a. CCCCn1c(=O)ccc2cnc(Nc3ccc(OC)c(F)c3)nc21
b. CCCn1c(=O)ccc2cnc(Nc3cccc([N+](=O)[O-])c3)nc21
**Query** Which item exceeds the other in IC50, a or b ? Pick one and reply with its label.
**Result** b
(b: 1.15 µM, a: 0.34 µM)

1. CC(=O)Nc1ccc(Nc2ncc3ccc(=O)n(C(C)C)c3n2)cc1
2. CCCn1c(=O)ccc2cnc(Nc3ccc4c(c3)C(C)C(C)N4)nc21 (stereo not shown)
**Query** Smaller IC50 value, 1 vs 2 ? Pick one and reply with its label.
**Result** 1

a. CCCCn1c(=O)ccc2cnc(Nc3ccc(OC)c(OC)c3)nc21
b. CCCn1c(=O)ccc2cnc(Nc3cccc(C(F)(F)F)c3)nc21
**Query** Smaller IC50 value, a vs b ? Pick one and reply with its label.
**Result** a

a. CCC(CC)n1c(=O)ccc2cnc(Nc3ccc(F)c(F)c3)nc21
b. O=c1ccc2cnc(Nc3ccc4[nH]c5ccccc5c4c3)nc2n1CC1CC1
**Query** Which item exceeds the other in IC50, a or b ? Pick one and reply with its label.
**Result** b

A. CCn1c(=O)ccc2cnc(Nc3cc(Cl)c(O)c(Cl)c3)nc21
B. CCCn1c(=O)ccc2cnc(Nc3ccccc3)nc21
C. CCC(CC)n1c(=O)ccc2cnc(Nc3ccc(Cl)c(Cl)c3)nc21
D. CCC(C)n1c(=O)ccc2cnc(Nc3ccc4c(c3)CCCC4=O)nc21 (stereo not shown)
**Query** Order these by IC50, descending, and give the full ranking. Labels, ranked as asked.
**Result** A, B, C, D
(A: 0.79 µM, B: 0.42 µM, C: 0.29 µM, D: 0.15 µM)

I. CCC(CC)n1c(=O)ccc2cnc(Nc3cc(OC)c(OC)c(OC)c3)nc21
II. CCCn1c(=O)ccc2cnc(Nc3cc(F)c(F)c(F)c3)nc21
III. CCCn1c(=O)ccc2cnc(Nc3ccc(S(N)(=O)=O)cc3)nc21
IV. CC(C)n1c(=O)ccc2cnc(Nc3ccc(NC(=O)OC(C)(C)C)cc3)nc21
**Query** Order by IC50, ascending. Labels, ranked as asked.
**Result** III, IV, II, I
